test system: Vaccinia virus; test: Antiviral activity against Vaccinia virus Copenhagen infected in African green monkey Vero cells assessed as inhibition of virus-induced cytotoxicity incubated for 4 days by neutral red dye uptake based spectrophotometric analysis; assay type: functional, organism-based, Orthopoxvirus vaccinia; settings: Orthopoxvirus vaccinia, Copenhagen, Vero, 96 h; read-out: IC50
Below, each entry is listed with its recorded IC50.
Note: state the figure and append the unit.

Reported IC50 for CC1(C)CC(=O)c2c(nc(-c3ccc(C#N)cc3)n2O)C1 was 0.498 µM

IC50 measured on COn1c(-c2ccc([N+](=O)[O-])cc2)nc2c1C(=O)CC(C)(C)C2 = 3.96 µM

Value of IC50 reported for the molecule CC(=O)c1c(C)nc(-c2ccc(N(C)C)cc2)n1O is 12.9 µM

GET /value?item= COn1c(-c2ccc(N(C)C)cc2)nc(C)c1C(C)=O &field=IC50 returns 62.1 µM

According to the records, this molecule CC1(C)CC(=O)c2c(nc(-c3ccc([N+](=O)[O-])cc3)n2O)C1 displays IC50 of 0.133 µM

For this molecule ( COn1c(-c2ccc(C#N)cc2)nc2c1C(=O)CC(C)(C)C2 ), measured IC50 is 28.5 µM

Documented IC50 of CC1(C)CC(=O)c2c(nc(-c3ccc([N+](=O)[O-])cc3)n2OCc2ccc(Cl)c(Cl)c2)C1 : 0.61 µM

# molecule COc1ccc(-c2nc(C)c(C(C)=O)n2O)cc1 ; its IC50 = 17.9 µM

IC50 in this record for Cn1c2c([n+]([O-])c1-c1ccc([N+](=O)[O-])cc1)C(=O)CC(C)(C)C2 : 183 µM

Given item COn1c(-c2ccc(C(F)(F)F)cc2)nc(C)c1C(C)=O , the value recorded as its IC50 is 5.9 µM

* * *

Recorded pIC50 for the following compounds
tested on: Vaccinia virus; assay: Antiviral activity against Vaccinia virus Copenhagen infected in African green monkey Vero cells assessed as inhibition of virus-induced cytotoxicity incubated for 4 days by neutral red dye uptake based spectrophotometric analysis; type: functional, organism-based, Orthopoxvirus vaccinia; conditions: Orthopoxvirus vaccinia, Copenhagen, Vero, 96 h; read-out: IC50
// pIC50 here means minus log10 of the molar concentration (mol/L)

Completed entries (count: 5):
>>> measurement("CC1(C)CC(=O)c2c(nc(-c3ccc(C(F)(F)F)cc3)n2O)C1")
6.81
>>> measurement("CC1(C)CC(=O)c2c(n(Cc3ccccc3)c(-c3ccc([N+](=O)[O-])cc3)[n+]2[O-])C1")
4.56
>>> measurement("CC(=O)c1c(C)nc(-c2ccc([N+](=O)[O-])cc2)n1O")
6.19
>>> measurement("CC(=O)c1c(C)nc(-c2ccc(C(F)(F)F)cc2)n1O")
7.15
>>> measurement("COn1c(-c2ccc(C#N)cc2)nc(C)c1C(C)=O")
3.64

The compound listed as CC1(C)CC(=O)c2c(nc(-c3ccc([N+](=O)[O-])cc3)n2OCc2c(F)cccc2F)C1 shows pIC50 equal to 5.91

* * *

Each entry below carries its reported IC50.
system: Vaccinia virus; assay: Antiviral activity against Vaccinia virus Copenhagen infected in African green monkey Vero cells assessed as inhibition of virus-induced cytotoxicity incubated for 4 days by neutral red dye uptake based spectrophotometric analysis; type: functional, organism-based, Orthopoxvirus vaccinia; details: Orthopoxvirus vaccinia, Copenhagen, Vero, 96 h; read-out: IC50
Write the value in µM as a bare number.

See these solved cases before continuing.
>>> measurement("Cn1c2c([n+]([O-])c1-c1ccc(C(F)(F)F)cc1)C(=O)CC(C)(C)C2")
14.2
>>> measurement("COn1c(-c2ccc([N+](=O)[O-])cc2)nc(C)c1C(C)=O")
4.76
>>> measurement("CC1(C)CC(=O)c2c(nc(-c3ccc([N+](=O)[O-])cc3)n2OCc2ccccc2Br)C1")
2.91
>>> measurement("CC1(C)CC(=O)c2c(nc(-c3ccc([N+](=O)[O-])cc3)n2OCc2ccccc2)C1")
6.39

# context switch: different compound, same IC50
Looking up O=C(NNC(=O)C1C2C=CC(C3CC23)C1C(=O)O)c1ccc(C(F)(F)F)cc1 (stereo not given) , I found its IC50 recorded as 0.008

Each recorded value in this set is attributed to ChEMBL document CHEMBL6092128.
